Target: Anthrax LF (Bacillus anthracis)
Sequence (P15917 34-809 limits assumed): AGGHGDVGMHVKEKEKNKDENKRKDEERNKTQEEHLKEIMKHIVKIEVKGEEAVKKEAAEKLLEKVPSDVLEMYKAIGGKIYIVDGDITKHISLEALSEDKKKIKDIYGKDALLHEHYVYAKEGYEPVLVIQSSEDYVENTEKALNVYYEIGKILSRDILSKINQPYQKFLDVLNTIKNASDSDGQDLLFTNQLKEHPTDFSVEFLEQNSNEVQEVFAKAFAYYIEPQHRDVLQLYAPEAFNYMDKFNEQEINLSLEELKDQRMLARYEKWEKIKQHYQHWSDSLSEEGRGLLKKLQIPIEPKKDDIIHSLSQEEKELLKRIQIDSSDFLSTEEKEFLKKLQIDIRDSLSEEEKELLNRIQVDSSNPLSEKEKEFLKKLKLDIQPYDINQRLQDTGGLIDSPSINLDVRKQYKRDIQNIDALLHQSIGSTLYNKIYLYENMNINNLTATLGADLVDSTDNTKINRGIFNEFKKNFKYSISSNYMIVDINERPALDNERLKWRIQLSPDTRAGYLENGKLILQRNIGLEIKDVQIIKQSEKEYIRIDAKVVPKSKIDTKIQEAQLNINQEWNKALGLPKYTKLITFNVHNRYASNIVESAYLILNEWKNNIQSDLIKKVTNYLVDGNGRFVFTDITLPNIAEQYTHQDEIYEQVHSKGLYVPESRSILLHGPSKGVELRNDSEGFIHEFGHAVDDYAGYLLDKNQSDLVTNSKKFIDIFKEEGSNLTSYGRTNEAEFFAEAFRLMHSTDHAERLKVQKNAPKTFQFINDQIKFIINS
Assay: biochemical
readoutName: IC50

// field: IC50; key: N#CC(=Cc1ccc(-n2ccnc2)cc1)c1nc2ccccc2[nH]1 ; value = > 100 µM

// field: IC50; key: COc1cc(C=C(C#N)c2nc3ccccc3[nH]2)cc(Br)c1O ; value = > 100 µM

// field: IC50; key: COc1cc(C=C(C#N)c2nc3ccccc3[nH]2)cc(O)c1OC ; value = > 100 µM
